Overview of recorded pKd for various binders
assayed system: T1, recombinant human PD-L1 His protein (human, UniProt Q9NZQ7 19-239)
T1 construct: not shown: His tag
T1 sequence (Q9NZQ7 19-239 limits assumed): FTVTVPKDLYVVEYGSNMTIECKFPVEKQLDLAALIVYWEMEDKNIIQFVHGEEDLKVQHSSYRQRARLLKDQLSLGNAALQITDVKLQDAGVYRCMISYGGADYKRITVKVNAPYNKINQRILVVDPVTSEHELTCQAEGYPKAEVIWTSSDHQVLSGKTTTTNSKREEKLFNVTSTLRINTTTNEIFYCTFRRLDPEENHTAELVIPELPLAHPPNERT
assay procedure: SPR Biacore T200, PD-L1 His on chip, sdAb analyte
pKd: −log10 of the molar value.

binder	pKd
AS06775 sdAb (VHH, His6-tagged llama sdAb) VHH: QVQLVESGGGLVQAGDSLRLSCAASGRTFLTLAVGWFRQAPGTEREFVAGIRWSGSGTDYADSVKGRFTISRDNAKNTVYLQMNSLKPEDTAVYYCAAHTTIATIPEKYEYEYWGRGTQVTVSS	9.81
AS06730 sdAb (VHH, His6-tagged llama sdAb) VHH: QVQLVESGGGLVQAGGSLRLSCAASGRTFITYAIGWFRQAPGKEREFVSAINWSGSMTSYADSVKGRFTISRDNAKNTVYLQMNGLKPEDTAVYYCAAHRGAIAPIAQSVYTNWGQGTQVTVSS	10.71
